test system: HCT-15
Quantity Kind: GI50

>>> result("Cc1cc(=O)oc2cc(OCc3nc4ccccc4c(=O)[nH]3)ccc12")
"> 100 µM"
>>> result("O=C(O)c1ccc(N2C=[N+]3C(=Nc4ccccc43)C2)cc1")
"> 100 µM"
>>> result("O=S(=O)(O)c1cc(S(=O)(=O)O)c2cc(/N=N/c3c(O)ccc4ccccc34)ccc2c1")
"> 100 µM"

====

Collected GI50 values appear next to each entry.
system: HCT-116; test: NCI tumour cell line growth inhibition, 48 h
Activity calls are given as the source filed them. No stated cut-off is given here; in the data, active = GI50 up to about 1.1 µM and inactive = higher.
Quantity Kind: GI50

>>> result("CN(C)CCNc1ncnc2nc(-c3ccccc3)c(-c3ccccc3)nc12")
"> 100 µM (inactive)"
>>> result("CCCC(=O)/C=C/S/C=C/C(=O)CCC")
"1.65 µM (inactive)"
>>> result("COC(=O)C1C=CN(N(C)C)C2=C1C(=O)c1c(O)cccc1C2=O (stereo unspecified)")
"1.92 µM (inactive)"
>>> result("COc1ccc(/C=C(\\Cl)c2ccc(OC)c(OC)c2)cc1OC")
"> 100 µM (inactive)"
>>> result("COc1cc(/C=C2\\NC(=O)C3Cc4c(OC)c(C)c(OC)c(OC)c4C2N3C)c(OC)c(C)c1OC (stereo unspecified)")
"> 100 µM (inactive)"
>>> result("C/C(=N\\NC(=S)N(C)C)c1ncc[nH]1")
"3.56 µM (inactive)"
>>> result("CC1=C(C(=O)Nc2cc(=O)n(C)c(=O)n2C)C(c2ccc([N+](=O)[O-])cc2)C(C(=O)Nc2cc(=O)n(C)c(=O)n2C)=C(C)N1")
"74.3 µM (inactive)"
>>> result("Cc1cc2ccccc2n2c1nc1ccccc12")
"> 100 µM (inactive)"
>>> result("CNC(=O)c1nn[nH]c1Sc1c([N+](=O)[O-])ncn1C")
"> 100 µM (inactive)"
>>> result("CN(C)CC1CCC/C(=C\\c2ccc(OC(=O)/C=C/c3ccc(Cl)c(Cl)c3)cc2)C1=O (stereo unspecified)")
"3.49 µM (inactive)"
>>> result("Cc1cc(=O)oc2cc(OCc3nc4ccccc4c(=O)[nH]3)ccc12")
"> 100 µM (inactive)"

====

system: HCC 2998; experiment: NCI tumour cell line growth inhibition, 48 h
Calls of active or inactive are those of the source. Cut-off read from the data, not from the text of the source: active = GI50 up to about 1.1 µM and inactive = higher. Where a SMILES comes first, the peptide text is derived from it. The star is where a group is joined. Cbz = O=C(OCc1ccccc1)*
Quantity Kind: GI50

>>> result("CC(=O)OCC1OC(n2c(-c3ccc(C)cc3)cc(-c3ccccc3)c(C#N)c2=S)C(OC(C)=O)C(OC(C)=O)C1OC(C)=O (stereo not given)")
"> 100 µM (inactive)"
>>> result("O=C(CCc1ccc(O)c(O)c1)NCCc1cc(OCc2ccccc2)cc(OCc2ccccc2)c1")
"9.86 µM (inactive)"
>>> result("CC12CC(C#N)(C#N)C(C#N)(CO1)C(=N)O2 (stereo not given)")
"> 100 µM (inactive)"
>>> result("CN(C)c1nc(N)c(C#N)c(C#N)c1C#N")
"> 10 µM (inactive)"
>>> result("Cc1ccc(NC(=S)N/N=C2\\C(=O)Nc3ccccc32)cc1")
"> 100 µM (inactive)"
>>> result("C[C@H]1C2Cc3cc(O)ccc3[C@@]1(C)CCN2CCc1ccc(N)cc1")
"13.6 µM (inactive)"
>>> result("Fc1ccc(C(OCCN2CCC3CCC(C2)N3C/C=C/c2ccco2)c2ccc(F)cc2)cc1 (stereo not given)")
"4.94 µM (inactive)"
>>> result("CCOC(=O)CCC(NC(=O)C(Cc1ccccc1)NC(=O)OCc1ccccc1)C(=O)OCC (stereo not drawn) (Cbz-Phe-Glu(OEt)-OEt; configuration not given here)")
"17.7 µM (inactive)"
>>> result("C=CC(O)(CBr)CCC(Br)C(C)(C)Cl (stereo not given)")
"> 10 µM (inactive)"
>>> result("Nc1ccccc1SC(/C=C/NNC1=NN=C(c2ccccc2)C(c2ccccc2)N1)c1ccccc1 (stereo not given)")
"16.5 µM (inactive)"
